// provenance: patent US5391540A

Readings of inhibition at 11200 g/ha for the listed molecules
System: Quackgrass
method summary: Pre-emergent herbicidal activity (Table A)
Assay type: in vivo
measurement conditions: pre-emergence, Rhqg, 11.2 kg/ha, 10-14 days, read-out: herbicidal rating (% inhibition)

{"columns": ["smiles data", "inhibition at 11200 g/ha"],
 "data": [
  ["COC(=O)c1c(OC)nc(C(F)(F)F)c(C(=O)N2CCSCC2)c1CC(C)C", "50 to 74%"],
  ["COCc1c(C(=O)OC)c(OC)nc(C(F)(F)F)c1C(=O)OC", "0 to 24%"],
  ["COC(=O)c1c(OC)nc(C(F)(F)F)c(N)c1CC(C)C", "75 to 100%"],
  ["CCOc1nc(C(F)(F)F)c(C(=NC)SC)c(CC(C)C)c1C(=O)OC", "75 to 100%"],
  ["CCOC=Nc1c(C(F)(F)F)nc(OC)c(C(=O)OC)c1CC(C)C", "75 to 100%"],
  ["COC(=O)c1c(OC)nc(C(F)(F)F)c(C(=O)n2ccc(C)n2)c1CC(C)C", "75 to 100%"],
  ["COC(=O)c1c(OC)nc(C(F)(F)F)c(C(=O)n2cccn2)c1C1CCC1", "75 to 100%"],
  ["COC(=O)c1c(OC)nc(C(F)(F)F)c(C(=O)n2cccn2)c1CC(C)C", "75 to 100%"],
  ["COC(=O)c1c(C(F)(F)F)nc(OC)c(C2=NCCO2)c1CC(C)C", "75 to 100%"],
  ["COC(=O)c1c(OC)nc(C(F)(F)F)c(C(=O)N2CCC2)c1CC(C)C", "75 to 100%"],
  ["COC(=O)c1c(OC)nc(C(F)(F)F)c(C(=O)SC)c1CC(C)C", "75 to 100%"],
  ["CCSC(=O)c1c(C(F)(F)F)nc(OC)c(C(=O)OC)c1CC(C)C", "75 to 100%"],
  ["COC(=O)c1c(OC)nc(C(F)(F)F)c(C(=O)OC)c1CC(C)C", "75 to 100%"],
  ["COC(=O)c1c(C(F)(F)F)[nH]c(=O)c(C#N)c1CC(C)C", "0 to 24%"],
  ["CCOC(=O)c1c(OC)nc(C(F)(F)Cl)c(C(=O)OC)c1CC(C)C", "75 to 100%"],
  ["COC(=O)c1c(OC)nc(C(F)(F)F)c(C(=O)n2cncn2)c1CC(C)C", "75 to 100%"],
  ["COC(=O)c1c(OC)nc(C(F)(F)F)c(C(=O)NCCO)c1CC(C)C", "0 to 24%"],
  ["COC(=O)c1c(C(F)(F)F)nc(OC)c(N)c1CC(C)C", "0 to 24%"]
]}
